Target: His-Brd4(44-477) (Homo sapiens (Human), UniProt O60885)
pIC50: −log10 of the molar value.
Respond with MET for pIC50 values of 7 and above, NOT MET for values below.

## Input Reported pIC50 at or above 7? COCc1nn(C2CC2)c2c1[C@@H](c1ccc(Cl)cc1)N(c1cc(C)c3nnc(C)n3c1)C2=O
## Output MET

## Input Reported pIC50 at or above 7? Cc1nn(C2CC2)c2c1[C@@H](c1ccc(Cl)cc1F)N(c1cc(C)c3nnc(C)n3c1)C2=O
## Output MET

## Input Reported pIC50 at or above 7? CCc1nn(C2CC2)c2c1C(c1ccc(Cl)cc1)N(c1cc(C)c(=O)n(C)c1)C2=O (stereo not shown)
## Output MET

## Input Reported pIC50 at or above 7? Cc1nn(C2CN(C)C2)c2c1C(c1ccc(Cl)cc1)N(c1cc(C)c(=O)n(C)c1)C2=O (stereo not shown)
## Output NOT MET

## Input Reported pIC50 at or above 7? Cc1cc(N2C(=O)c3nn(C(=O)N(C)C)c(C)c3C2c2ccc(Cl)cc2)cn(C)c1=O (stereo not shown)
## Output NOT MET

## Input Reported pIC50 at or above 7? COc1ncccc1-n1nc(C)c2c1C(=O)N(c1cc(C)c(=O)n(C)c1)C2c1ccc(Cl)cc1 (stereo not shown)
## Output MET

## Input Reported pIC50 at or above 7? COc1ncccc1-n1nc(C)c2c1C(=O)N(c1cc(C)c3nnc(C)n3c1)C2c1ccc(F)cc1F (stereo not shown)
## Output MET

## Input Reported pIC50 at or above 7? CCc1nn(C2CC2)c2c1C(c1ccc(Cl)cc1)N(c1cc(C)c3nnc(C)n3c1)C2=O (stereo not shown)
## Output MET

----------
Target: His-CREBBP (1081-1197) bromodomain (Homo sapiens (Human), UniProt Q92793)
Sequence (Q92793 1081-1197): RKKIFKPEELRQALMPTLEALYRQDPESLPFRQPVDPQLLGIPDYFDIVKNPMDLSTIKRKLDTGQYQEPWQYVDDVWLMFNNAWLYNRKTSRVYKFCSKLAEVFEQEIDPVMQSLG
Experiment: AlphaScreen in-vitro binding assay for CREBBP
Details: biochemical
Description: AlphaScreen In-Vitro Binding Assay for CREBBP In order to assess bromodomain selectivity, we set up a binding assay using the bromodomain encoded by the CREBBP gene. […] Reactions were incubated at 30° C. for 35 minutes. […] After 60 minutes incubation at room temperature, plates were measured in a Perkin Elmer EnVision multilabel reader. IC50 values were determined from percent inhibition values at different compound concentrations by non-linear regression analysis. […]
outcome measure: pIC50
Reminder that pIC50 means the negative base-10 logarithm of the concentration expressed in mol/L.

## Input # get_value(readout= pIC50, system= His-CREBBP (1081-1197) bromodomain (Homo sapiens (Human), UniProt Q92793)) for CCOc1c2c(nn1C)C(=O)N(c1cc(C)c(=O)n(C)c1)C2c1ccc(Cl)cc1 (stereo not shown)
## Output 5.54

## Input # get_value(readout= pIC50, system= His-CREBBP (1081-1197) bromodomain (Homo sapiens (Human), UniProt Q92793)) for CCc1c2c(nn1C(=O)N(C)C)C(=O)N(c1cc(C)c(=O)n(C)c1)C2c1ccc(Cl)cc1 (stereo not shown)
## Output 5.39

## Input # get_value(readout= pIC50, system= His-CREBBP (1081-1197) bromodomain (Homo sapiens (Human), UniProt Q92793)) for CC(C)n1cc2c(n1)C(=O)N(c1cc(Cl)c(=O)n(C)c1)C2c1ccc(Cl)cc1 (stereo not shown)
## Output 6.35

----------
Biological target: nuclear BRD4-NUT foci in HCC2494 NUT midline carcinoma cells (Homo sapiens (Human), UniProt O60885+Q86Y26)
Test: Nut-foci formation assay
Settings: 24 hours, read-out: HCS Brd4-NUT IC50
outcome measure: pIC50
Reminder that pIC50 means the negative base-10 logarithm of the concentration expressed in mol/L.

## Input Query: pIC50; subject: Cc1cc(N2C(=O)c3c(cnn3C3CC3)C2c2ccc(Cl)cc2)cn(C)c1=O (stereo not drawn)
## Output 6.69

## Input Query: pIC50; subject: COc1ncc(-n2nc(C)c3c2C(=O)N(c2cc(C)c(=O)n(C)c2)[C@@H]3c2ccc(Cl)cc2)c(OC)n1
## Output 7.38

## Input Query: pIC50; subject: Cc1nn(C2CCC2)c2c1C(c1ccc(Cl)cc1)N(c1cc(C)c(=O)n(C)c1)C2=O (stereo not drawn)
## Output 7.66

## Input Query: pIC50; subject: Cc1nn(C2CN(C)C2)c2c1C(c1ccc(Cl)cc1)N(c1cc(C)c3nnc(C)n3c1)C2=O (stereo not drawn)
## Output 7.00

## Input Query: pIC50; subject: Cc1nn(C2CC2)c2c1C(c1ccc(C(F)(F)F)cc1)N(c1cc(C)c(=O)n(C)c1)C2=O (stereo not drawn)
## Output 6.84

## Input Query: pIC50; subject: Cc1nn(-c2ccnn2C)c2c1C(c1ccc(Cl)cc1)N(c1cc(C)c3nnc(C)n3n1)C2=O (stereo not drawn)
## Output 7.63

## Input Query: pIC50; subject: CCc1nn(C2CC2)c2c1[C@H](c1ccc(Cl)cc1)N(c1cc(C)c3nnc(C)n3c1)C2=O
## Output 5.65

## Input Query: pIC50; subject: CCn1nc(C)c2c1C(=O)N(c1cc(C)c3nnc(C)n3c1)C2c1ccc(Cl)cc1 (stereo not drawn)
## Output 7.57

## Input Query: pIC50; subject: Cc1cc(N2C(=O)c3nn(C4CNC4)c(C)c3C2c2ccc(Cl)cc2)cn2c(C)nnc12 (stereo not drawn)
## Output 5.87

## Input Query: pIC50; subject: Cc1nn(C[C@H](O)C(F)(F)F)c2c1[C@@H](c1ccc(Cl)cc1)N(c1cc(C)c3nnc(C)n3c1)C2=O
## Output 7.48

## Input Query: pIC50; subject: CNC(=O)n1nc(C)c2c1C(=O)N(c1cc(C)c3nnc(C)n3c1)C2c1ccc(Cl)cc1 (stereo not drawn)
## Output 6.97

## Input Query: pIC50; subject: COc1ncc(-n2nc3c(c2C(C)C)C(c2ccc(Cl)cc2)N(c2ccc4onc(C)c4c2)C3=O)c(OC)n1 (stereo not drawn)
## Output 6.31

## Input Query: pIC50; subject: CCc1nn(CCOC)c2c1C(c1ccc(Cl)cc1)N(c1cc(C)c3nnc(C)n3c1)C2=O (stereo not drawn)
## Output 7.76

## Input Query: pIC50; subject: Cc1cc(N2C(=O)c3nn(C(=O)N(C)C)c(C)c3C2c2ccc(Cl)cc2)cn(C)c1=O (stereo not drawn)
## Output 6.64

## Input Query: pIC50; subject: Cc1nn(C2CN(C)C2)c2c1C(c1ccc(Cl)cc1)N(c1cc(C)c(=O)n(C)c1)C2=O (stereo not drawn)
## Output 6.36

## Input Query: pIC50; subject: Cc1nn(-c2ccnn2C)c2c1C(c1ccc(Cl)cc1)N(c1cc(C)c3nnc(C)n3c1)C2=O (stereo not drawn)
## Output 7.35

## Input Query: pIC50; subject: CC(=O)N1CC(n2nc(C)c3c2C(=O)N(c2cc(C)c4nnc(C)n4c2)C3c2ccc(Cl)cc2)C1 (stereo not drawn)
## Output 6.68

## Input Query: pIC50; subject: Cc1nn(C2CC2)c2c1C(c1cccc(C(F)(F)F)c1)N(c1cc(C)c(=O)n(C)c1)C2=O (stereo not drawn)
## Output 5.70

## Input Query: pIC50; subject: CCc1nn(C2CC2)c2c1C(c1ccc(Cl)cc1)N(c1cc(C)c3nnc(C)n3c1)C2=O (stereo not drawn)
## Output 7.94

## Input Query: pIC50; subject: Cc1nn(C(C)C)c2c1[C@@H](c1ccc(Cl)cc1)N(c1cc(C)c(=O)n(C)c1)C2=O
## Output 7.95

## Input Query: pIC50; subject: CCc1nn(C2CC2)c2c1C(c1ccc(Cl)cc1)N(c1cc(OC)c3nnc(C)n3c1)C2=O (stereo not drawn)
## Output 7.04

## Input Query: pIC50; subject: Cc1nn(-c2cncn2C)c2c1C(c1ccc(Cl)cc1)N(c1cc(C)c(=O)n(C)c1)C2=O (stereo not drawn)
## Output 7.01

## Input Query: pIC50; subject: Cc1nn(C(=O)N(C)C)c2c1[C@@H](c1ccc(Cl)cc1)N(c1cc(C)c3nnc(C)n3c1)C2=O
## Output 7.45

## Input Query: pIC50; subject: Cc1nn(-c2ccnn2C)c2c1C(c1ccc(Cl)cc1)N(c1cc(C)c(=O)n(C)c1)C2=O (racemic)
## Output 7.35

## Input Query: pIC50; subject: Cc1nn(-c2ccnn2C)c2c1[C@@H](c1ccc(Cl)cc1)N(c1cc(C)c(=O)n(C)c1)C2=O
## Output 7.18

## Input Query: pIC50; subject: Cc1nn(C2COC2)c2c1C(c1ccc(Cl)cc1)N(c1cc(C)c(=O)n(C)c1)C2=O (stereo not drawn)
## Output 7.03

## Input Query: pIC50; subject: CCc1nn(CCO)c2c1C(c1ccc(Cl)cc1)N(c1cc(C)c(=O)n(C)c1)C2=O (stereo not drawn)
## Output 7.40

## Input Query: pIC50; subject: Cc1cc(N2C(=O)c3c(c(C4CC4)nn3-c3ccnn3C)C2c2ccc(Cl)cc2)cn2c(C)nnc12 (stereo not drawn)
## Output 7.61

## Input Query: pIC50; subject: CCc1c2c(nn1CCO)C(=O)N(c1cc(C)c3onc(C)c3c1)C2c1ccc(Cl)cc1 (stereo not drawn)
## Output 6.75

## Input Query: pIC50; subject: Cc1nn(-c2ccnn2C)c2c1[C@H](c1ccc(Cl)cc1)N(c1cc(C)c(=O)n(C)c1)C2=O
## Output 5.21
